Numbers sourced from patent US20110112135A1.

The next entries give measured IC50 for human LXRβ (Homo sapiens).
MEASUREMENT_LABEL: IC50 (nM)

{"COMPOUND": "CS(=O)(=O)c1cccc(Oc2cccc(-c3c(Cn4ccnc4)nc4c(C(F)(F)F)cccn34)c2)c1 [Example 129]", "TARGET_DESC": "human LXRβ (Homo sapiens)", "IC50 [nM]": 30}

1. CCc1nc2c(C(F)(F)F)cccn2c1-c1ccc(-c2ccc(S(=O)(=O)C(C)C)cc2)cc1 [Example 92]
2. CCc1nc2c(Cl)cccn2c1-c1cccc(Oc2cccc(S(=O)(=O)NC)c2)c1 [Example 48]
Problem: Between 1 and 2 , which one has the lower reported IC50 value? // output: label of the selected item
Solution: 2
(2: 23 nM, 1: 1590 nM)
